Tested on: PANC-1
protocolDetails: Cytotoxicity against human PANC-1 cells assessed as reduction in cell growth measured after 72 hrs by MTT assay
Format: functional, cell-based
experimentalContext: PANC-1, 72 h
measuredProperty: pIC50
The quantity pIC50 is defined as the negative base-10 logarithm of the molar concentration.

>>> numericvalue("CC(C)=CCC[C@@](C)(O)[C@H]1CC[C@]2(C)[C@@H]1CC[C@@H]1[C@@]3(C)CC[C@H](O)C(C)(C)[C@@H]3CC[C@]12C")
4.48
>>> numericvalue("CC(C)=CCC/C(C)=C/CC[C@@](C)(O)[C@@H]1CC[C@H]2[C@@]1(C)CC[C@H]1C(C)(C)[C@@H](O)CC[C@]21C")
4.54
>>> numericvalue("CC(=O)O[C@H]1C(=O)[C@@]2(C)[C@H]([C@H](OC(=O)c3ccccc3)[C@]3(O)C[C@H](OC(=O)[C@H](O)[C@@H](NC(=O)c4ccccc4)c4ccccc4)C(C)=C1C3(C)C)[C@]1(OC(C)=O)CO[C@@H]1C[C@@H]2O [PACLITAXEL]")
8.40
>>> numericvalue("CC(C)=CCC/C(C)=C/CC[C@@](C)(O)[C@@H]1CC[C@H]2[C@@]1(C)CC[C@H]1C(C)(C)[C@@H](O[C@@H]3O[C@H](CO)[C@@H](O)[C@H](O)[C@H]3O[C@@H]3O[C@H](CO)[C@@H](O)[C@H](O)[C@H]3O)CC[C@]21C")
4.35
>>> numericvalue("CC(C)=CCC/C(C)=C/CC[C@@](C)(O)[C@@H]1CC[C@H]2[C@@]1(C)CC[C@H]1C(C)(C)[C@@H](O[C@@H]3O[C@H](CO)[C@@H](O)[C@H](O)[C@H]3O)CC[C@]21C")
4.66

// fetch PANC-1 pIC50 for CC(C)=CCC/C(C)=C/CCC(C)(O)[C@H]1CC[C@H]2[C@@]1(C)CC[C@H]1C(C)(C)[C@@H](O)CC[C@]21C (stereo not given in full)
4.82
